So I've got a bunch of binders here, and I need their Soluble trimeric huBAFF (50 pM) Neutralization IC50 values.
system_name: Recombinant soluble trimeric human BAFF (furin-cleaved human BAFF 134-285) (human, UniProt Q9Y275 134-285)
assay_name: cell-based or functional assay
Report the value in pM with no unit label.

Per the records, this binder ( 394F5A5 (antibody, V domains shown) VH: VTLKESGPGILQPSQTLSLTCSFSGFSLRTFGMGVGWIRQPSGKGLEWLAHIWWNDEKYYNPTLKSRLTISKDTSKNQVFLRIANVDTAVTAAYYCARIGPSITTVVEGFPYWGQGTLVTVSA VL: DIVMTQSQKFMSTTIGDRVSITCKASQNVGSAVAWYQQKPGQPPKLLIYSTSNRYTGVPDRFTGSRSGTDFTLTVSNMQSEDLADYFCQQYASYPLTFGTGTKLELK ) has Soluble trimeric huBAFF (50 pM) Neutralization IC50 equal to 16

// 435A6B3 (antibody, V domains shown) VH: EVQLQQSGPELVKPGASMKMSCKASGYTFTSYVMHWMKQKPGQGLEWIGYLNPNNDGTKYNEKFKGKATLTSDKSSSTAYMELSSLTSEDSAVYYCARGDYSNYFYWYFDVWGAGTTVSVSS VL: DIKMTPSPSSMYASLGERVTITCKASQDINRYLSWFQQKPGKSPKTLIYRANRLVDGVPSRFSGSGSGQDYSLTISSLEYEDMGIYYCLQYDEFPYTFGGGTKLEIK : Soluble trimeric huBAFF (50 pM) Neutralization IC50 value = 23

In plain terms, 323E9D1 (antibody, V domains shown) VH: QVTLKESGPGILQPSQTLSLTCSFSGFSMRTFGMGVGWIRQPSGKGLEWLAHIWWNDEKYYNPDLKSRLTVSKDSSKNQVFLTIANVDTSDTAPYYCTRVGPSISTIAEGFPYWGQGTLVTVSA VL: DIVMTQSQKFVSTRVGDRVSITCKASQNVGAAVVWYQQKSGQPPKLLIRSASNRYIGVPDRFTGSGSGTDFTLTVSDVQSGDLADYFCQQYSNYPLTFGAGTKLELT has a documented Soluble trimeric huBAFF (50 pM) Neutralization IC50 of 148

Query 436H2C12 (antibody, V domains shown) VH: QVQLQQSGPELVKPGASVKLSCKASGYTFSDYTIHWVKQSPGQGLEWIGWIYPGRGNTKYNDKFKGKATMTADKSSSTAYMQLSSLTSEESAVYFCARDYRRYYAMDYWGQGTSVTVSS VL: NIVLTQSPASLAVSLGQRATISCRASESVDNYGNSFMHWYQQKPGQPPKLLISLASNLESGVPARFSGSGSRTDFTLTIDPVEADDAATYYCQQNNEDPRTFGGGTKLEIK yields Soluble trimeric huBAFF (50 pM) Neutralization IC50 of 27

Short answer for 440E9D12 (antibody, V domains shown) VH: QVRLRESGPGLVAPSQNLFITCTVSGFSLTDYEINWVRQPPGKNLEWLGVIWTGGGTKYNSVLISRLNISKDNSKRQVFFKMTSLQTDDTAIYYCVREGRRYYAMDYWGQGTSVTVSS VL: NIVLTQSPASLPVSLGQRATMSCRASKSVDSYGTSFMHWYQHRPGQPPKLLISLASNLESGVPGRFSGSGSRTDFTLTIDPVEPDDAATYYCQQNNEDPRTFGGGTTLEIK : Soluble trimeric huBAFF (50 pM) Neutralization IC50 was 31
